target: importin-α1 (IMPα1) (human, UniProt P52292 2-529); assay: DUOLINK proximity ligation in permeabilised MDA-MB-231 cells; loss of the PDL1-Ac:IMPα1 complex, DL-2 10 to 0.00975 µM
Starred links: 1 amine or outer side, 2 acyl side, 3 side chain; linkers in the order of their positions; H or OH if unused. Positions of bridges follow the written chain, without caps; N, C: chain ends. No end group written: not given here. *: point of attachment. TBMB = c1c(C[*:1])cc(C[*:3])cc1C[*:2]; Myristyl = CCCCCCCCCCCCCC*
endpoint.label: pIC50
Scale explanation: pIC50 corresponds to minus log10 of a concentration expressed in moles per litre.

Per the record, Myristyl-ACLTFIFCRLRKGRCMMDVKK (linker 2-8-15 via TBMB, also called DL-2-TBMB; DL-2-Batch 1) [DL-2 bicyclic peptide (Myristyl-ACLTFIFCRLRKGRCMMDVKK on TBMB scaffold)] has pIC50 of 7.41
